The following sequences are listed with their measured Kd values.
target: HLA-B*46:01; test: IEDB peptide-MHC binding, purified MHC/direct/fluorescence; filed as Kd, often an IC50 or EC50 that approximates it; bounds were set here for any values at or beyond the usual limits of such assays; settings: source organism: Yellow fever virus

| sequence entry | Kd |
| --- | --- |
| GSRAYRNAL | ≥ 20 µM |
| SCRVKLSAL | ≥ 20 µM |

----------
target: HLA-B*27:20; experiment: IEDB peptide-MHC binding, purified MHC/competitive/fluorescence; filed as Kd, often an IC50 or EC50 that approximates it; bounds were set here for any values at or beyond the usual limits of such assays; conditions: source organism: Salmonella enterica subsp. enterica serovar Typhi
pKd: −log10 of the molar value.

| sequence entry | pKd |
| --- | --- |
| KQLELFWVI | 8.89 |

----------
# pKd per record follows
biological target: HLA-A*31:01; experiment: IEDB peptide-MHC binding, purified MHC/direct/fluorescence; filed as Kd, often an IC50 or EC50 that approximates it; bounds were set here for any values at or beyond the usual limits of such assays; conditions: source organism: Vibrio cholerae
pKd: −log10 of the molar value.
parameter: pKd

| sequence entry | target entity | parameter | result |
| --- | --- | --- | --- |
| FPLTQRDVL | HLA-A*31:01 | pKd | ≤ 4.70 |
| FPRSAERAG | HLA-A*31:01 | pKd | ≤ 4.70 |
| EIFPNIKIY | HLA-A*31:01 | pKd | ≤ 4.70 |

----------
Measured Kd of individual entries
molecular target: HLA-A*02:01; assay: IEDB peptide-MHC binding, purified MHC/competitive/radioactivity; filed as Kd, often an IC50 or EC50 that approximates it; bounds were set here for any values at or beyond the usual limits of such assays; conditions: source organism: Homo sapiens
parameter: Kd

| sequence entry | parameter | result |
| --- | --- | --- |
| PLESDAVECL | Kd | ≥ 63.1 µM |
| ELEALKTEL | Kd | ≥ 54.3 µM |
| ELRLLIHQSL | Kd | 1.51 µM |

----------
target: HLA-B*58:01; test: IEDB peptide-MHC binding, purified MHC/direct/fluorescence; filed as Kd, often an IC50 or EC50 that approximates it; bounds were set here for any values at or beyond the usual limits of such assays; settings: source organism: Camelpox virus M-96
Measured Kd by item

| sequence entry | Kd |
| --- | --- |
| NSNINVINY | ≥ 20 µM |
| KELENEYYF | ≥ 20 µM |

----------
target: HLA-B*58:01; experiment: IEDB peptide-MHC binding, purified MHC/direct/fluorescence; filed as Kd, often an IC50 or EC50 that approximates it; bounds were set here for any values at or beyond the usual limits of such assays; details: source organism: Brucella melitensis
parameter: Kd (nM)

| sequence entry | parameter | measured number |
| --- | --- | --- |
| KAGVRGWFL | Kd | 225 |
| RAYSVPETF | Kd | 14.5 |

----------
molecular target: HLA-A*11:01; assay: IEDB peptide-MHC binding, purified MHC/competitive/fluorescence; bounds were set here for any values at or beyond the usual limits of such assays; conditions: source organism: Zaire ebolavirus
# IC50 values compiled below
parameter: IC50

| sequence entry | result |
| --- | --- |
| RSTKGGQQK | 1.81 µM |
| RLMRTNFLI | 3.95 µM |
| ETKKNLTRK | 14.1 µM |
| PVYRDHSEK | 7.12 µM |
| ATQVEQHHR | 5.22 µM |

Provenance of the data: the Immune Epitope Database (IEDB)
